target: Glutamate NMDA receptor; test: Displacement of [3H]CGP-39653 from NMDA receptor in rat cortical membrane

COMPOUND	Ki
N[C@]1(C(=O)O)C[C@H]1[C@H]1CC(C(=O)O)=NO1 (racemic)	> 100 µM
O=C(O)C1=NO[C@]2(CN[C@@H](C(=O)O)C2)C1	> 100 µM
N[C@]1(C(=O)O)C[C@H]1[C@@H]1CC(O)=NO1 (racemic)	13 µM
O=C(O)[C@H]1C[C@@]2(CN1)CC(O)=NO2	> 100 µM
O=C(O)C1=NO[C@@]2(CN[C@@H](C(=O)O)C2)C1	> 100 µM
O=C(O)C1=NO[C@]2(CN[C@H](C(=O)O)C2)C1	> 100 µM
N[C@]1(C(=O)O)C[C@H]1[C@@H]1CC(C(=O)O)=NO1 (racemic)	34 µM
O=C(O)[C@H]1C[C@]2(CN1)CC(O)=NO2	> 100 µM
O=C(O)[C@@H]1C[C@]2(CN1)CC(O)=NO2	> 100 µM
O=C(O)[C@@H]1C[C@@]2(CN1)CC(O)=NO2	> 100 µM
N[C@]1(C(=O)O)C[C@H]1[C@H]1CC(O)=NO1 (racemic)	> 100 µM
O=C(O)C1=NO[C@@]2(CN[C@H](C(=O)O)C2)C1	> 100 µM

----------
test: Displacement of [3H]AMPA from AMPA receptor in rat cortical membrane; assay type: cell membranes
Recorded IC50 by entry

COMPOUND	IC50
N[C@H](CCCP(=O)(O)O)C(=O)O	> 100 µM
N[C@]1(C(=O)O)C[C@H]1[C@H]1CC(O)=NO1 (racemic)	> 100 µM
N[C@@H](CCCP(=O)(O)O)C(=O)O	> 100 µM
